species on record: Rattus norvegicus; assay: Open TG-GATES - Regimen: Single; assay type: toxicity, organism-based, Sprague-Dawley; design: regimen Single, gender Male, age 6 weeks; conditions: in vivo, po, 0 mg/kg, 6 h, tissue Plasma, route gavage, dose level Control
MEASURED_PROPERTY: TG (mg/dL)
Lab book: enter the figure in mg/dL, no units written.

Request: Form field: reported TG of `CN(C)CCN(Cc1cccs1)c1ccccn1`
Response: 44.6

Request: Repeat with COc1ccc2[nH]c([S+]([O-])Cc3ncc(C)c(OC)c3C)nc2c1 (stereo not drawn)
Response: 81.2

Request: Repeat with `Cc1ccc(C)c(OCCCC(C)(C)C(=O)O)c1`
Response: 71.2

Request: Repeat with CCOc1ccc(NC(=O)CC(C)O)cc1 (stereo not drawn)
Response: 62.8

Request: Repeat with `CN(C)CCCN1c2ccccc2CCc2ccc(Cl)cc21`
Response: 77.8

Request: Repeat with `O=C(CCCN1CCC(O)(c2ccc(Cl)cc2)CC1)c1ccc(F)cc1`
Response: 47.8

Request: Repeat with `CC1=C(/C=C/C(C)=C/C=C/C(C)=C/CO)C(C)(C)CCC1`
Response: 79.6

Request: Repeat with CC(C)OC(=O)C(C)(C)Oc1ccc(C(=O)c2ccc(Cl)cc2)cc1 [FENOFIBRATE]
Response: 44.6

---

Field: MCH. Provide a value for each of the compounds that follow.
species on record: Rattus norvegicus; test: Open TG-GATES - Regimen: Daily Repeat; format: toxicity, organism-based, Sprague-Dawley; design: regimen Daily Repeat, gender Male, age 6 weeks; conditions: in vivo, po, 1000 mg/kg, 72 h, tissue Blood, route gavage, dose level High, time 3 day

Request: Form field: reported MCH of CCOc1ccc(NC(=O)CC(C)O)cc1 (stereo not given)
Response: 20.7 pg

Request: Repeat with `COC1=CC(=O)C[C@@H](C)[C@]12Oc1c(Cl)c(OC)cc(OC)c1C2=O`
Response: 21.2 pg

Request: Repeat with `NC(N)=Nc1nc(CSCCC(N)=NS(N)(=O)=O)cs1`
Response: 21.9 pg

Request: Repeat with CCOC(=O)CCC(=O)O[C@H]1[C@H](O[C@@H]2[C@@H](C)[C@H](O[C@H]3C[C@@](C)(OC)[C@@H](O)[C@H](C)O3)[C@@H](C)C(=O)O[C@H](CC)[C@@](C)(O)[C@H](O)[C@@H](C)C(=O)[C@H](C)C[C@@]2(C)O)O[C@H](C)C[C@@H]1N(C)C [ERYTHROMYCIN ETHYLSUCCINATE]
Response: 21.2 pg

Request: Repeat with COc1ccc2[nH]c([S+]([O-])Cc3ncc(C)c(OC)c3C)nc2c1 (stereo not given)
Response: 20.8 pg

---

organism: Rattus norvegicus; assay: Open TG-GATES - Regimen: Daily Repeat; type: toxicity, organism-based, Sprague-Dawley; set-up: regimen Daily Repeat, gender Male, age 6 weeks; settings: in vivo, po, 100 mg/kg, […], tissue Plasma, route gavage, dose level Low, time 14 day
MEASURED_PROPERTY: IP (mg/dL)
Lab book: enter the figure in mg/dL, no units written.

Request: Form field: reported IP of COC1=CC(=O)C[C@@H](C)[C@]12Oc1c(Cl)c(OC)cc(OC)c1C2=O [GRISEOFULVIN]
Response: 7.4

Request: Repeat with COc1ccc2[nH]c([S+]([O-])Cc3ncc(C)c(OC)c3C)nc2c1 (stereo not given) [OMEPRAZOLE]
Response: 7.9

Request: Repeat with NC(N)=Nc1nc(CSCCC(N)=NS(N)(=O)=O)cs1 [FAMOTIDINE]
Response: 7

Request: Repeat with CCOC(=O)CCC(=O)O[C@H]1[C@H](O[C@@H]2[C@@H](C)[C@H](O[C@H]3C[C@@](C)(OC)[C@@H](O)[C@H](C)O3)[C@@H](C)C(=O)O[C@H](CC)[C@@](C)(O)[C@H](O)[C@@H](C)C(=O)[C@H](C)C[C@@]2(C)O)O[C@H](C)C[C@@H]1N(C)C [ERYTHROMYCIN ETHYLSUCCINATE]
Response: 6.8

Request: Repeat with CCOc1ccc(NC(=O)CC(C)O)cc1 (stereo not given) [BUCETIN]
Response: 7.4

---

organism: Rattus norvegicus; test: Open TG-GATES - Regimen: Single; assay type: toxicity, organism-based, Sprague-Dawley; set-up: regimen Single, gender Male, age 6 weeks; settings: in vivo, po, 1000 mg/kg, 3 h, tissue Blood, route gavage, dose level High
Field: Neu. Provide a value for each of the compounds that follow.
Lab book: enter the figure in %, no units written.

Request: Form field: reported Neu of `COC1=CC(=O)C[C@@H](C)[C@]12Oc1c(Cl)c(OC)cc(OC)c1C2=O`
Response: 17

Request: Repeat with `NC(N)=Nc1nc(CSCCC(N)=NS(N)(=O)=O)cs1`
Response: 14

Request: Repeat with CCOC(=O)CCC(=O)O[C@H]1[C@H](O[C@@H]2[C@@H](C)[C@H](O[C@H]3C[C@@](C)(OC)[C@@H](O)[C@H](C)O3)[C@@H](C)C(=O)O[C@H](CC)[C@@](C)(O)[C@H](O)[C@@H](C)C(=O)[C@H](C)C[C@@]2(C)O)O[C@H](C)C[C@@H]1N(C)C [ERYTHROMYCIN ETHYLSUCCINATE]
Response: 20

Request: Repeat with COc1ccc2[nH]c([S+]([O-])Cc3ncc(C)c(OC)c3C)nc2c1 (centres undefined)
Response: 21

---

species on record: Rattus norvegicus; experiment: Open TG-GATES - Regimen: Single; assay type: toxicity, organism-based, Sprague-Dawley; set-up: regimen Single, gender Male, age 6 weeks; details: in vivo, po, 0 mg/kg, 24 h, tissue Blood, route gavage, dose level Control
Strictly below 3% in Mono: rule met. Otherwise: rule not met.

Request: Take the compound CN(C)CCCN1c2ccccc2CCc2ccc(Cl)cc21 [CLOMIPRAMINE] and say whether its Mono is less than 3%.
Response: rule met

Request: Repeat with COc1cc2c(c(OC)c1OC)-c1ccc(OC)c(=O)cc1[C@@H](NC(C)=O)CC2 [COLCHICINE]
Response: rule not met

Request: Repeat with CC1=C(/C=C/C(C)=C/C=C/C(C)=C/CO)C(C)(C)CCC1 [RETINOL]
Response: rule met

Request: Repeat with CCOc1ccc(NC(=O)CC(C)O)cc1 (centres undefined) [BUCETIN]
Response: rule met

Request: Repeat with Cc1ccc(C)c(OCCCC(C)(C)C(=O)O)c1 [GEMFIBROZIL]
Response: rule met

Request: Repeat with C[C@@H]1C[C@H]2[C@@H]3CCC4=CC(=O)C=C[C@]4(C)[C@@]3(F)[C@@H](O)C[C@]2(C)[C@@]1(O)C(=O)CO [DEXAMETHASONE]
Response: rule not met

Request: Repeat with O=C(CCCN1CCC(O)(c2ccc(Cl)cc2)CC1)c1ccc(F)cc1 [HALOPERIDOL]
Response: rule not met

Request: Repeat with NNC(=O)c1ccncc1 [ISONIAZID]
Response: rule met

Request: Repeat with NC(N)=Nc1nc(CSCCC(N)=NS(N)(=O)=O)cs1 [FAMOTIDINE]
Response: rule met

---

Field: DBIL. Provide a value for each of the compounds that follow.
species: Rattus norvegicus; test: Open TG-GATES - Regimen: Daily Repeat; format: toxicity, organism-based, Sprague-Dawley; design: regimen Daily Repeat, gender Male, age 6 weeks; conditions: in vivo, po, 0 mg/kg, […], tissue Plasma, route gavage, dose level Control, time 14 day
Lab book: enter the figure in mg/dL, no units written.

Request: Form field: reported DBIL of `NC(N)=Nc1nc(CSCCC(N)=NS(N)(=O)=O)cs1`
Response: 0.096

Request: Repeat with `CN(C)CCN(Cc1cccs1)c1ccccn1`
Response: 0.002

Request: Repeat with COc1ccc2[nH]c([S+]([O-])Cc3ncc(C)c(OC)c3C)nc2c1 (centres undefined)
Response: 0.08

Request: Repeat with `CN1C(=O)CN=C(c2ccccc2)c2cc(Cl)ccc21`
Response: 0.01

---

Field: Lym. Provide a value for each of the compounds that follow.
species on record: Rattus norvegicus; test: Open TG-GATES - Regimen: Single; format: toxicity, organism-based, Sprague-Dawley; set-up: regimen Single, gender Male, age 6 weeks; settings: in vivo, po, 30 mg/kg, 9 h, tissue Blood, route gavage, dose level Middle
Lab book: enter the figure in %, no units written.

Request: Form field: reported Lym of `CN(C)CCCN1c2ccccc2CCc2ccc(Cl)cc21`
Response: 77.8

Request: Repeat with `CC1=C(/C=C/C(C)=C/C=C/C(C)=C/CO)C(C)(C)CCC1`
Response: 75.2

Request: Repeat with `CN(C)CCN(Cc1cccs1)c1ccccn1`
Response: 74

Request: Repeat with `CN(C)CCCN1c2ccccc2CCc2ccccc21`
Response: 78.4
